- TARGET ENTITY: HLA-A*02:01 (Homo sapiens, UniProt P04439, D140Y/D185E/D98H/E176V/E277Q/G131W/G231S/I119V/I121R/I166T/I218V/L300P/L318F/N151K/N90K/P208A/P217A/Q86G/Q94H/R138H/R169H/T345S)
- ASSAY SUMMARY: MHC binding assay (UV-ligand exchange, beta2m ELISA)
- STATED CONDITIONS: binding to HLA-A*02:01, β2m ELISA
- Text: Candidate peptides for T cell based therapies according to the present invention were further tested for their MHC binding capacity (affinity). The individual peptide-MHC complexes were produced by UV-ligand exchange, where a UV-sensitive peptide is cleaved upon UV-irradiation, and exchanged with the peptide of interest as analyzed. Only peptide candidates that can effectively bind and stabilize the peptide-receptive MHC molecules prevent dissociation of the MHC complexes. […]
MEASURE: Peptide exchange (MHC class I binding score, peptide exchange yield)

Take a look at these entries with their results.
191 (AAIEIFEKV; listed as Homo sapiens) [compound 191]
+++ (≥50 = +++)
45 (FLPVSVVYV; listed as Homo sapiens) [compound 45]
+++ (≥50 = +++)
239 (VIIKGLEEITV; listed as Homo sapiens) [compound 239]
+++ (≥50 = +++)
198 (ILTNKVVSV; listed as Homo sapiens) [compound 198]
++ (≥20% = ++)
87 (KLLSLLEEA; listed as Homo sapiens) [compound 87]
+++ (≥50 = +++)
138 (GIINKLVTV; listed as Homo sapiens) [compound 138]
++ (≥20% = ++)
38 (VLQQESNFL; listed as Homo sapiens) [compound 38]
++ (≥20% = ++)
58 (HLLGEGAFAQV; listed as Homo sapiens) [compound 58]
+++ (≥50 = +++)

Please report the recorded Peptide exchange (MHC class I binding score, peptide exchange yield) for 279 (VLMDEGAVLTL; listed as Homo sapiens) [compound 279] .
++ (≥20% = ++)

Please report the recorded Peptide exchange (MHC class I binding score, peptide exchange yield) for 188 (VLGEEQEGV; listed as Homo sapiens) [compound 188] .
++ (≥20% = ++)

---

- TARGET ENTITY: HLA-A*02:01 (Homo sapiens, UniProt P04439, D140Y/D185E/D98H/E176V/E277Q/G131W/G231S/I119V/I121R/I166T/I218V/L300P/L318F/N151K/N90K/P208A/P217A/Q86G/Q94H/R138H/R169H/T345S)
- ASSAY SUMMARY: MHC binding assay (UV-ligand exchange, beta2m ELISA)
- STATED CONDITIONS: binding to HLA-A*02:01, β2m ELISA
MEASURE: Peptide exchange (MHC class I binding score, peptide exchange yield)

Take a look at these entries with their results.
66 (AMFPDTIPRV; listed as Homo sapiens) [compound 66]
++ (≥20% = ++)
180 (RLYEEEIRI; listed as Homo sapiens) [compound 180]
+++ (≥50 = +++)
207 (KLFETVEEL; listed as Homo sapiens) [compound 207]
+++ (≥50 = +++)
109 (ILGSFELQL; listed as Homo sapiens) [compound 109]
+++ (≥50 = +++)
50 (ILLSVLHQL; listed as Homo sapiens) [compound 50]
+++ (≥50 = +++)

Please report the recorded Peptide exchange (MHC class I binding score, peptide exchange yield) for 242 (KLQEEIPVL; listed as Homo sapiens) [compound 242] .
+++ (≥50 = +++)

Please report the recorded Peptide exchange (MHC class I binding score, peptide exchange yield) for 157 (ILQDGQFLV; listed as Homo sapiens) [compound 157] .
++ (≥20% = ++)

Please report the recorded Peptide exchange (MHC class I binding score, peptide exchange yield) for 170 (FIAAVVEKV; listed as Homo sapiens) [compound 170] .
++ (≥20% = ++)

---

- TARGET ENTITY: HLA-A*02:01 (Homo sapiens, UniProt P04439, D140Y/D185E/D98H/E176V/E277Q/G131W/G231S/I119V/I121R/I166T/I218V/L300P/L318F/N151K/N90K/P208A/P217A/Q86G/Q94H/R138H/R169H/T345S)
- ASSAY SUMMARY: MHC binding assay (UV-ligand exchange, beta2m ELISA)
- STATED CONDITIONS: binding to HLA-A*02:01, β2m ELISA
MEASURE: Peptide exchange (MHC class I binding score, peptide exchange yield)

Take a look at these entries with their results.
278 (VLEDKVLSV; listed as Homo sapiens) [compound 278]
+++ (≥50 = +++)
64 (SLYAGSNNQV; listed as Homo sapiens) [compound 64]
++ (≥20% = ++)
276 (RMPTVLQCV; listed as Homo sapiens) [compound 276]
+++ (≥50 = +++)
243 (GLAEFQENV; listed as Homo sapiens) [compound 243]
++ (≥20% = ++)

Please report the recorded Peptide exchange (MHC class I binding score, peptide exchange yield) for 105 (AMLASQTEA; listed as Homo sapiens) [compound 105] .
++ (≥20% = ++)

---

- TARGET ENTITY: HLA-A*02:01 (Homo sapiens, UniProt P04439, D140Y/D185E/D98H/E176V/E277Q/G131W/G231S/I119V/I121R/I166T/I218V/L300P/L318F/N151K/N90K/P208A/P217A/Q86G/Q94H/R138H/R169H/T345S)
- ASSAY SUMMARY: MHC binding assay (UV-ligand exchange, beta2m ELISA)
- STATED CONDITIONS: binding to HLA-A*02:01, β2m ELISA
MEASURE: Peptide exchange (MHC class I binding score, peptide exchange yield)

130 (QLYGSAITL; listed as Homo sapiens) [compound 130]
+++ (≥50 = +++)
96 (ALDTTRHEL; listed as Homo sapiens) [compound 96]
++ (≥20% = ++)
114 (LLFPSDVQTL; listed as Homo sapiens) [compound 114]
++ (≥20% = ++)
161 (NLLDENVCL; listed as Homo sapiens) [compound 161]
++++ (≥75% = ++++)
158 (YLDPLWHQL; listed as Homo sapiens) [compound 158]
+++ (≥50 = +++)

Please report the recorded Peptide exchange (MHC class I binding score, peptide exchange yield) for 16 (SLADLSLLL; listed as Homo sapiens) [compound 16] .
+++ (≥50 = +++)

Please report the recorded Peptide exchange (MHC class I binding score, peptide exchange yield) for 262 (LLLEAVWHL; listed as Homo sapiens) [compound 262] .
+++ (≥50 = +++)

Please report the recorded Peptide exchange (MHC class I binding score, peptide exchange yield) for 111 (AQLEGKLVSI; listed as Homo sapiens) [compound 111] .
+++ (≥50 = +++)

Please report the recorded Peptide exchange (MHC class I binding score, peptide exchange yield) for 176 (VQSGLRILL; listed as Homo sapiens) [compound 176] .
++ (≥20% = ++)

Please report the recorded Peptide exchange (MHC class I binding score, peptide exchange yield) for 244 (NVAEIVIHI; listed as Homo sapiens) [compound 244] .
+++ (≥50 = +++)

---

- TARGET ENTITY: HLA-A*02:01 (Homo sapiens, UniProt P04439, D140Y/D185E/D98H/E176V/E277Q/G131W/G231S/I119V/I121R/I166T/I218V/L300P/L318F/N151K/N90K/P208A/P217A/Q86G/Q94H/R138H/R169H/T345S)
- ASSAY SUMMARY: MHC binding assay (UV-ligand exchange, beta2m ELISA)
- STATED CONDITIONS: binding to HLA-A*02:01, β2m ELISA
- Excerpt: Candidate peptides for T cell based therapies according to the present invention were further tested for their MHC binding capacity (affinity). The individual peptide-MHC complexes were produced by UV-ligand exchange, where a UV-sensitive peptide is cleaved upon UV-irradiation, and exchanged with the peptide of interest as analyzed. Only peptide candidates that can effectively bind and stabilize the peptide-receptive MHC molecules prevent dissociation of the MHC complexes. […]
MEASURE: Peptide exchange (MHC class I binding score, peptide exchange yield)

55 (HLFDKIIKI; listed as Homo sapiens) [compound 55]
+++ (≥50 = +++)
273 (SLNKQIETV; listed as Homo sapiens) [compound 273]
++ (≥20% = ++)
34 (TLNTLDINL; listed as Homo sapiens) [compound 34]
+++ (≥50 = +++)
199 (SVADLAHVL; listed as Homo sapiens) [compound 199]
++ (≥20% = ++)

Please report the recorded Peptide exchange (MHC class I binding score, peptide exchange yield) for 77 (ALYGNVQQV; listed as Homo sapiens) [compound 77] .
+++ (≥50 = +++)

Please report the recorded Peptide exchange (MHC class I binding score, peptide exchange yield) for 190 (SLSTELFKV; listed as Homo sapiens) [compound 190] .
+++ (≥50 = +++)

Please report the recorded Peptide exchange (MHC class I binding score, peptide exchange yield) for 121 (ALYVQAPTV; listed as Homo sapiens) [compound 121] .
++ (≥20% = ++)

Please report the recorded Peptide exchange (MHC class I binding score, peptide exchange yield) for 175 (SLLDLVQSL; listed as Homo sapiens) [compound 175] .
+++ (≥50 = +++)

Please report the recorded Peptide exchange (MHC class I binding score, peptide exchange yield) for 250 (LMQDSRLYL; listed as Homo sapiens) [compound 250] .
+++ (≥50 = +++)

Data origin: patent US10081665B2
